Values were extracted from ChEMBL document CHEMBL3593188.

Test: Inhibition of calf brain tubulin polymerization after 20 mins by spectrophotometric analysis
Set-up: species or system Bos taurus
As shown below, each of these compounds has a reported IC50 value.

Known IC50 results, listed for orientation:
COc1cc(C(=O)c2ccc(N(C)C)c(C=O)c2)cc(OC)c1OC	> 20 µM
COc1cc(C(=O)c2ccc(N(C)C)c([N+](=O)[O-])c2)cc(OC)c1OC	> 20 µM
C=C(c1ccc(N(C)C)c(C=NO)c1)c1cc(OC)c(OC)c(OC)c1	> 5 µM
COc1cc(C(=O)c2ccc(N3CCCC3)cc2)cc(OC)c1OC	> 5 µM
C=C(c1ccc(N(C)C)cc1)c1cc(OC)c(OC)c(OC)c1	1.9 µM

What does the data say about its IC50? Entry: "COc1cc(/C(=N/O)c2ccc(N3CCCC3)cc2)cc(OC)c1OC" > 5 µM

What does the data say about its IC50? Entry: "COc1cc(C(=O)c2ccc(N(C)C)c(N)c2)cc(OC)c1OC" > 5 µM

----------
Experiment: Inhibition of calf brain tubulin polymerization after 20 mins by spectrophotometric analysis
Set-up: species or system Bos taurus
As shown below, each of these compounds has a reported pIC50 value.
Note on pIC50: it is the negative log10 of concentration, concentration in mol/L.

Known pIC50 results, listed for orientation:
C/C=C(/c1cc(OC)c(OC)c(OC)c1)c1ccc2c(c1)c1ccccc1n2CC	5.82
C=C(c1cc(OC)c(OC)c(OC)c1)c1ccc2c(c1)c1ccccc1n2CC	6.05
CCn1c2ccccc2c2cc(C(=O)c3cc(OC)c(OC)c(OC)c3)ccc21	5.80

What does the data say about its pIC50? Entry: "C=C(c1ccc(N2CCCC2)cc1)c1cc(OC)c(OC)c(OC)c1" 5.96

What does the data say about its pIC50? Entry: "COc1ccc(/C=C\c2cc(OC)c(OC)c(OC)c2)cc1O" 5.52

----------
Test system: HT-29
Assay: Cytotoxicity against human HT-29 cells assessed as inhibition of cell proliferation after 72 hrs by XTT assay
Assay type: functional, cell-based
Conditions: HT-29, 72 h
As shown below, each of these molecules has a reported IC50 value.
The reply should contain only the number, in nM.

Known IC50 results, listed for orientation:
C=C(c1ccc(N(C)C)c(N)c1)c1cc(OC)c(OC)c(OC)c1	600
CCn1c2ccccc2c2cc(/C(=N/O)c3cc(OC)c(OC)c(OC)c3)ccc21	300
C=C(c1ccc(N(C)C)cc1)c1cc(OC)c(OC)c(OC)c1	70
C=C(c1ccc(N2CCCC2)cc1)c1cc(OC)c(OC)c(OC)c1	600

What does the data say about its IC50? Entry: "COc1cc(/C(=N/O)c2ccc(N(C)C)cc2)cc(OC)c1OC" 10000

What does the data say about its IC50? Entry: "COc1ccc(/C=C\c2cc(OC)c(OC)c(OC)c2)cc1O" 30

What does the data say about its IC50? Entry: "C=C(c1ccc(N(C)C)c(C#N)c1)c1cc(OC)c(OC)c(OC)c1" 960

What does the data say about its IC50? Entry: "C/C=C(/c1cc(OC)c(OC)c(OC)c1)c1ccc2c(c1)c1ccccc1n2CC" 560

----------
As shown below, each of these compounds has a reported solubility at 48 h value.
Experiment: Aqueous solubility of the compound in phosphate buffer at pH 7 after 48 hrs by spectrophotometric analysis
Type: physicochemical
The reply should contain only the number, in µg/mL.

Known solubility at 48 h results, listed for orientation:
COc1cc(/C(=N/O)c2ccc(N(C)C)cc2)cc(OC)c1OC	74
COc1cc(/C(=N/O)c2ccc(N3CCCC3)cc2)cc(OC)c1OC	13.7

What does the data say about its solubility at 48 h? Entry: "C/C=C(/c1cc(OC)c(OC)c(OC)c1)c1ccc2c(c1)c1ccccc1n2CC" 1.8

What does the data say about its solubility at 48 h? Entry: "C=C(c1ccc(N2CCCC2)cc1)c1cc(OC)c(OC)c(OC)c1" 1.3

What does the data say about its solubility at 48 h? Entry: "CCn1c2ccccc2c2cc(C(=O)c3cc(OC)c(OC)c(OC)c3)ccc21" 2

What does the data say about its solubility at 48 h? Entry: "COc1cc(C(=O)c2ccc(N3CCCC3)cc2)cc(OC)c1OC" 2.6

What does the data say about its solubility at 48 h? Entry: "C=C(c1cc(OC)c(OC)c(OC)c1)c1ccc(N(C)C)c(C2OCCO2)c1" 11
